Taken from patent US4886810A.

# ASSAY EXPLANATION: in vivo
# Design: species or system mice
# COND: mouse, feces, po, 5 mg/kg; read-out: Feces recovery
RECORDED ENDPOINT: dose excreted at 24 h (%)
Return type: number; implicit unit %.

What value of dose excreted at 24 h has been reported for the following compound? CC1CN(c2c(F)c(F)c3c(=O)c(C(=O)O)cn(C4CC4)c3c2F)CCN1 (stereo not shown) [Compound 1]
22.3

---

# Test system: M. bovis P-7101
# ASSAY EXPLANATION: microbe, parasite or virus in culture
# Assay type: cell-based
# COND: Mycobacterium tuberculosis variant bovis, P7101, 20 h; read-out: minimum inhibitory concentrations (MIC)
So I've got a bunch of compounds here, and I need their MIC values.
Return type: number; implicit unit µg/mL.

What value of MIC has been reported for the following compound? C[C@H]1CN(c2c(F)c(N)c3c(=O)c(C(=O)O)cn(C4CC4)c3c2F)C[C@H]1CN.Cl (relative stereo) [Compound 6]
0.2

// next record CC1(N)CCN(c2c(F)c(N)c3c(=O)c(C(=O)O)cn(C4CC4)c3c2F)C1 (stereo not drawn) [Compound 3]
0.2

// next record CCC1(N)CCN(c2c(F)c(N)c3c(=O)c(C(=O)O)cn(C4CC4)c3c2F)C1 (stereo not drawn) [Compound 4]
0.2

---

# Tested on: E. coli P-51213
# ASSAY EXPLANATION: microbe, parasite or virus in culture
# Type: cell-based
# COND: Escherichia coli, P51213, 20 h; read-out: minimum inhibitory concentrations (MIC)
So I've got a bunch of compounds here, and I need their MIC values.
Return type: number; implicit unit µg/mL.

What value of MIC has been reported for the following compound? C[C@H]1CN(c2c(F)c(F)c3c(=O)c(C(=O)O)cn(C4CC4)c3c2F)C[C@H]1N (relative stereo)
0.05

// next record CC1(N)CCN(c2c(F)c(N)c3c(=O)c(C(=O)O)cn(C4CC4)c3c2F)C1 (stereo not drawn)
0.05

// next record CCC1(N)CCN(c2c(F)c(N)c3c(=O)c(C(=O)O)cn(C4CC4)c3c2F)C1 (stereo not drawn)
0.05
